Reference for the values: patent US20210127673A1

Exercise: for every item that follows, state its recorded Control of LOLPE after pre-emergence application (score 0-5).
System: Lolium perenne (LOLPE)
Experiment: Pre-emergence herbicidal activity, Lolium perenne
Type: in vivo
Settings: 1000 g/ha, evaluated after 13 days
Numbers only.

Examples with their reported Control of LOLPE after pre-emergence application (score 0-5) follow.
{"cpd smiles": "O=C(Nc1ccc(-c2cncc(F)c2)nc1C(F)(F)F)NN1CCOCC1", "measured value": 1}
{"cpd smiles": "C=CCOC(=O)Nc1ccc(-c2cncc(F)c2)nc1C(F)(F)F", "measured value": 0}
{"cpd smiles": "CC(C)(C)OC(=O)N(C(=O)OC(C)(C)C)c1ccc(-c2cncc(F)c2)nc1C(F)(F)F", "measured value": 1}
{"cpd smiles": "CC(C)COC(=O)Nc1ccc(-c2cncc(F)c2)nc1C(F)(F)F", "measured value": 1}

# return Control of LOLPE after pre-emergence application (score 0-5) for each item in the list
1. CSc1cncc(-c2ccc(NC(=O)OC(C)(C)C)c(C)n2)c1
2. O=C(Nc1ccccc1)Nc1ccc(-c2cncc(F)c2)nc1C(F)(F)F
3. O=C(NCc1ccc(Cl)cc1)Nc1ccc(-c2cncc(F)c2)nc1C(F)(F)F

1. 1
2. 0
3. 0

# return Control of LOLPE after pre-emergence application (score 0-5) for each item in the list
1. C=CCN(C(=O)N(C)C)c1ccc(-c2cncc(F)c2)nc1C(F)(F)F
2. CN(C)C(=O)Nc1ccc(-c2cncc(F)c2)nc1C(F)(F)F
3. CN(C(=O)OC(C)(C)C)c1ccc(-c2cncc(C#N)c2)nc1C(F)(F)F

1. 1
2. 1
3. 0

---

System: Zea Mays (ZEAMX)
Experiment: Post-emergence herbicidal activity, Zea Mays
Assay type: in vivo
Set-up: key: 5=total damage to plant; 0=no damage to plant
Conditions: 1000 g/ha, evaluated after 13 days, Test 2b
reported metric: ZEAMX damage score (0-5)
Give bare numbers.

Examples with their reported ZEAMX damage score (0-5) follow.
{"cpd smiles": "Cc1nc(-c2cncc(F)c2)ccc1NC(=O)OC(C)(C)C", "measured value": 5}
{"cpd smiles": "CC(C)(C)OC(=O)Nc1ccc(-c2cncnc2)nc1C(F)(F)F", "measured value": 5}
{"cpd smiles": "CN(C(=O)OC(C)(C)C)c1ccc(-c2cncc(F)c2)nc1C(F)(F)F", "measured value": 5}
{"cpd smiles": "COc1cncc(-c2ccc(NC(=O)OC(C)(C)C)c(C)n2)c1", "measured value": 5}
{"cpd smiles": "CC(C)(C)OC(=O)Nc1ccc(-c2cncc(F)c2)nc1C(F)(F)F", "measured value": 5}
{"cpd smiles": "CCN(C(=O)OC(C)(C)C)c1ccc(-c2cncc(F)c2)nc1C(F)(F)F", "measured value": 4}
{"cpd smiles": "Cc1nc(-c2cccnc2)ccc1NC(=O)OC(C)(C)C", "measured value": 4}
{"cpd smiles": "Cc1nc(-c2cncnc2)ccc1NC(=O)OC(C)(C)C", "measured value": 5}
{"cpd smiles": "Cc1nc(-c2cncc(OC(F)F)c2)ccc1NC(=O)OC(C)(C)C", "measured value": 5}
{"cpd smiles": "Cc1nc(-c2cncc(C#N)c2)ccc1NC(=O)OC(C)(C)C", "measured value": 4}

# return ZEAMX damage score (0-5) for each item in the list
1. CN(C(=O)OC(C)(C)C)c1ccc(-c2cncnc2)nc1C(F)(F)F
2. CN(C(=O)OC(C)(C)C)c1ccc(-c2cccnc2)nc1C(F)(F)F
3. CC(C)OC(=O)Nc1ccc(-c2cncc(F)c2)nc1C(F)(F)F

[5, 2, 5]

# return ZEAMX damage score (0-5) for each item in the list
1. Cc1nc(-c2cncc(C(F)(F)F)c2)ccc1NC(=O)OC(C)(C)C
2. COc1cncc(-c2ccc(N(C)C(=O)OC(C)(C)C)c(C(F)(F)F)n2)c1
3. CN(C(=O)OC(C)(C)C)c1ccc(-c2cncc(C(F)(F)F)c2)nc1C(F)(F)F
4. Cc1cncc(-c2ccc(N(C)C(=O)OC(C)(C)C)c(C(F)(F)F)n2)c1
5. CC(C)(C)OC(=O)Nc1ccc(-c2cncnc2)nc1Cl

[2, 2, 1, 2, 3]
